Listed here: items and their measured Ki.
- Experimental target: D(2) dopamine receptor (Rattus norvegicus, UniProt P61169)
- Sequence (P61169 whole entry): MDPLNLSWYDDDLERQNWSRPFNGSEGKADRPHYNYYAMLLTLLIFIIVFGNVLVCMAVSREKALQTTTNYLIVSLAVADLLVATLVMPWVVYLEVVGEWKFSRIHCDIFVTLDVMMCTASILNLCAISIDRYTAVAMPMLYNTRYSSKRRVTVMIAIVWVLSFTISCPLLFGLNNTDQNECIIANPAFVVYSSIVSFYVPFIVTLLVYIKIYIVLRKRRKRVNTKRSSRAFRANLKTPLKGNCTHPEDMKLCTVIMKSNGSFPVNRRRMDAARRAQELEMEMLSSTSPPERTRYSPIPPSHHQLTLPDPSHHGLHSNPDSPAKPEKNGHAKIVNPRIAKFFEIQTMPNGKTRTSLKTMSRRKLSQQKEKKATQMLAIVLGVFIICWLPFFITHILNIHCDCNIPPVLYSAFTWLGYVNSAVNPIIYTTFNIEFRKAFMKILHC
- Procedure summary: Displacement of [3H]spiperone from dopamine D2 receptor in CRL:CD(SD)BR-COBS rat striatum by scintillation spectrometry
Result type: Ki (nM)

| Smiles code | Reported result |
| --- | --- |
| Clc1cccc(N2CCN(CCCCCCN3CCN(c4cccc(Cl)c4)CC3)CC2)c1 | 11 |
| Cc1cccc(N2CCN(CCCCCCN3CCN(c4cccc(C)n4)CC3)CC2)c1 | 33 |
| c1ccc(N2CCN(CCCCCCN3CCN(c4ccccn4)CC3)CC2)nc1 | 159 |
| Cc1cccc(N2CCN(CCCCCCN3CCN(c4cccc(C)c4)CC3)CC2)c1 | 70 |
| Cc1cccc(N2CCN(CCCCCCN3CCN(c4ccccc4)CC3)CC2)n1 | 24 |
| c1ccc(N2CCN(CCCCCCN3CCN(c4ccnc5ccccc45)CC3)CC2)cc1 | 41 |
| Cc1cccc(N2CCN(CCCCCCN3CCN(c4ccccc4)CC3)CC2)c1 | 20 |
| c1ccc(N2CCN(CCCCCCN3CCN(c4ccccc4)CC3)CC2)cc1 | 1 |
| COc1cccc(N2CCN(CCCCCCN3CCN(c4cccc(Cl)c4)CC3)CC2)c1 | 4 |
| COc1cccc(N2CCN(CCCCCCN3CCN(c4cccc(OC)c4)CC3)CC2)c1 | 27 |

Value source: ChEMBL document CHEMBL1177700
